All values here come from ChEMBL document CHEMBL1156154.

# System under test: Muscarinic acetylcholine receptor M1 (Homo sapiens)
# Sequence (whole entry): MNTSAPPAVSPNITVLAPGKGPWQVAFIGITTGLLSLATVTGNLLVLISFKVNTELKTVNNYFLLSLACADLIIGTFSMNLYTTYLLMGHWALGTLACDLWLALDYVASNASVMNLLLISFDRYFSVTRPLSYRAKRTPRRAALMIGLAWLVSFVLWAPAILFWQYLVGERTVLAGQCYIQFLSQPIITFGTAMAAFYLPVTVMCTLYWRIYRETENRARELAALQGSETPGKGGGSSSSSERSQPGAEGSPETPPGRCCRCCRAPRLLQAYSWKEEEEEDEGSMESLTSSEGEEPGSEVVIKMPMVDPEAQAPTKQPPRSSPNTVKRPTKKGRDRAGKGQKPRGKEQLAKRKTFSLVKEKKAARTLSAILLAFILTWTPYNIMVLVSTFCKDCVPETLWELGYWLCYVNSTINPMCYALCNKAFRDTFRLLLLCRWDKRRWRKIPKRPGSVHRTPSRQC
# Protocol details: Positive allosteric modulator activity at human muscarinic M1 receptor expressed in CHO cells assessed as effect on acetylcholine-induced intracellular calcium mobilization by FLIPR assay
# Assay type: functional, cell-based
Attribute measured: IP (µM)

                                item_smiles   val
0  Cc1ccn(-c2ccc(Cn3cc(C(=O)O)c(=O)c4ccncc43)cc2)n1  0.25

1: O=C(O)c1cn(Cc2ccc(-c3ccccc3)cc2)c2sccc2c1=O
2: Nc1cccc(-c2ccc(Cn3cc(C(=O)O)c(=O)c4sccc43)nc2)c1
Hey, between 1 and 2 which has a smaller measured IP? Lab log: write the label of the selected item as the result.
2
(2: 0.038 µM, 1: 0.37 µM)

A: O=C(O)c1cn(Cc2ccc(-n3cccn3)cc2)c2ncccc2c1=O
B: Cc1ccn(-c2ccc(Cn3cc(C(=O)O)c(=O)c4sccc43)cc2)n1
Hey, between A and B which has a smaller measured IP? Lab log: write the label of the selected item as the result.
B

----------
# Protocol details: Plasma protein binding in rat serum by equilibrium dialysis method
Attribute measured: fraction unbound

>>> df
                                item_smiles    val
0  Cc1cn(-c2ccc(Cn3cc(C(=O)O)c(=O)c4cccnc43)cc2)cn1  0.052

a: Cn1cc(-c2ccc(Cn3cc(C(=O)O)c(=O)c4sccc43)cc2)cn1
b: O=C(O)c1cn(Cc2ccc(-n3cccn3)cc2)c2ncccc2c1=O
Hey, between a and b which has a smaller measured fraction unbound? Lab log: write the label of the selected item as the result.
a
(a: 0.009, b: 0.048)

I: O=C(O)c1cn(Cc2ccc(-c3ccccc3)cc2)c2sccc2c1=O
II: Cn1cc(-c2ccc(Cn3cc(C(=O)O)c(=O)c4sccc43)nc2)cn1
Choose between I and II : whose measured fraction unbound value is numerically larger? Lab log: write the label of the selected item as the result.
II

1: O=C(O)c1cn(Cc2ccc(-n3ccnc3)cc2)c2ccsc2c1=O
2: O=C(O)c1cn(Cc2ccc(-n3cccn3)cc2)c2ccsc2c1=O
Hey, between 1 and 2 which has a smaller measured fraction unbound? Lab log: write the label of the selected item as the result.
2

----------
# System under test: Muscarinic acetylcholine receptor M1 (Homo sapiens)
# Sequence (whole entry): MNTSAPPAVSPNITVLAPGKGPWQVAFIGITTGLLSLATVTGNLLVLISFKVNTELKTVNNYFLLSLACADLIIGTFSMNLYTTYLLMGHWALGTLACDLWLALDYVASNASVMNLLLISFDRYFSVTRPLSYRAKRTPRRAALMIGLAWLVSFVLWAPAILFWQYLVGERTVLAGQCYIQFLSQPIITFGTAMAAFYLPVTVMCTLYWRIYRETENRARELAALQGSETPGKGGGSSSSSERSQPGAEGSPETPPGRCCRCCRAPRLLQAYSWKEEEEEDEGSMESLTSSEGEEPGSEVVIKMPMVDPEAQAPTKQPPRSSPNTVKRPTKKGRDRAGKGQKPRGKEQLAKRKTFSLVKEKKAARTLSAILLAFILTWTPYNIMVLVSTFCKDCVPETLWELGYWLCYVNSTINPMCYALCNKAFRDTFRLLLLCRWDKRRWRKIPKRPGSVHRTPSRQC
# Protocol details: Positive allosteric modulator activity at human muscarinic M1 receptor expressed in CHO cells assessed as effect on acetylcholine-induced intracellular calcium mobilization by FLIPR assay
# Format: functional, cell-based
Attribute measured: IP (µM)

Example results:
                                item_smiles   val
0  O=C(O)c1cn(Cc2ccc(-c3ccccc3)cc2)c2ncccc2c1=O  0.58
1  O=C(O)c1cn(Cc2ccc(-c3ccccc3)cc2)c2ccccc2c1=O  0.21

I: O=C(O)c1cn(Cc2ccc(-n3cccn3)cc2)c2ccsc2c1=O
II: Cn1cc(-c2ccc(Cn3cc(C(=O)O)c(=O)c4sccc43)cc2)cn1
III: O=C(O)c1cn(Cc2ccc(-c3ccccc3)cc2)c2nsnc2c1=O
Provide the items ranked by increasing IP. Kindly provide the labels arranged according to the requested ordering.
II, I, III

----------
# Protocol details: Plasma protein binding in human serum by equilibrium dialysis method
Attribute measured: fraction unbound

Example results:
                                item_smiles    val
0  Cc1ccn(-c2ccc(Cn3cc(C(=O)O)c(=O)c4cccnc43)cc2)n1  0.012
1  O=C(O)c1cn(Cc2ccc(-n3cccn3)cc2)c2ncccc2c1=O  0.061
2  Cn1cc(-c2ccc(Cn3cc(C(=O)O)c(=O)c4sccc43)nc2)cn1  0.279
3  O=C(O)c1cn(Cc2ccc(-n3cccn3)cc2)c2ccsc2c1=O   0.14
4  Cc1ccn(-c2ccc(Cn3cc(C(=O)O)c(=O)c4ccncc43)cc2)n1  0.125

A: Nc1cccc(-c2ccc(Cn3cc(C(=O)O)c(=O)c4sccc43)nc2)c1
B: O=C(O)c1cn(Cc2ccc(-c3ccccc3)cc2)c2ncccc2c1=O
Choose between A and B : whose measured fraction unbound value is numerically larger? Lab log: write the label of the selected item as the result.
A
(A: 0.117, B: 0.008)

----------
# System: Rattus norvegicus
# Protocol details: Plasma concentration in Sprague-Dawley rat at 10 mg/kg, po
# Type: ADME, organism-based
# Set-up: dose 10 mg/kg, route oral
# Recorded conditions: in vivo
Attribute measured: concentration (µM)

>>> print(df.to_string())
                                item_smiles  units_label   val
0  O=C(O)c1cn(Cc2ccc(-n3cccn3)cc2)c2ccsc2c1=O           µM  4.24

a: Cn1cc(-c2ccc(Cn3cc(C(=O)O)c(=O)c4sccc43)nc2)cn1
b: Cc1ccn(-c2ccc(Cn3cc(C(=O)O)c(=O)c4ccncc43)cc2)n1
Choose between a and b : whose measured concentration value is numerically larger? Lab log: write the label of the selected item as the result.
b
(b: 78.5 µM, a: 9.42 µM)

----------
# Protocol details: Half life in rat at 10 mg/kg, po and 2 mg/kg, iv
# Assay type: ADME, organism-based
# Recorded conditions: in vivo
Attribute measured: half-life (h)
Enter your answer as a number in h; do not include the unit.

# molecule `O=C(O)c1cn(Cc2ccc(-n3cccn3)cc2)c2ccsc2c1=O` ; its half-life = 3.7

----------
# Protocol details: Plasma protein binding in human serum by equilibrium dialysis method
Attribute measured: fraction unbound

>>> print(df.to_string())
                                item_smiles  attribute_measured    val
0  O=C(O)c1cn(Cc2ccc(-c3ccccc3)cc2)c2ccsc2c1=O    fraction unbound  0.013
1  O=C(O)c1cn(Cc2ccc(-c3ccccc3)cc2)c2sccc2c1=O    fraction unbound  0.007
2  Cc1cn(-c2ccc(Cn3cc(C(=O)O)c(=O)c4cccnc43)cc2)cn1    fraction unbound  0.233
3  O=C(O)c1cn(Cc2ccc(-n3ccnc3)cc2)c2ccsc2c1=O    fraction unbound  0.199

I: Cn1cc(-c2ccc(Cn3cc(C(=O)O)c(=O)c4sccc43)cc2)cn1
II: O=C(O)c1cn(Cc2ccc(-c3ccccc3)cc2)c2nccnc2c1=O
Hey, between I and II which has a smaller measured fraction unbound? Lab log: write the label of the selected item as the result.
II

----------
# System under test: Muscarinic acetylcholine receptor M1 (Homo sapiens) (UniProt P11229)
# Sequence (whole entry): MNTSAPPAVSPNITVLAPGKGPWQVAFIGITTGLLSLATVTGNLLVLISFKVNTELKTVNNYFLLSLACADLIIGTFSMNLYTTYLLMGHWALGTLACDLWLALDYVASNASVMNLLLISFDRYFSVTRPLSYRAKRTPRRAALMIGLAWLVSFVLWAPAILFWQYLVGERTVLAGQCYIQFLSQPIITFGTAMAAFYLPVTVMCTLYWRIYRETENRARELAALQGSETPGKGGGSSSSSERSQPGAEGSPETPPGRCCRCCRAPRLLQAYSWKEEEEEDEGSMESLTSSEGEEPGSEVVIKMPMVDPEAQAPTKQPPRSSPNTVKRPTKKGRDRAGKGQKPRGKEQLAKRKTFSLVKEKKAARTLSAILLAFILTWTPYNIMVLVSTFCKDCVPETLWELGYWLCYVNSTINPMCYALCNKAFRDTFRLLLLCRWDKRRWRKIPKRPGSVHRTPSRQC
# Protocol details: Positive allosteric modulator activity at human muscarinic M1 receptor expressed in CHO cells assessed as effect on acetylcholine-induced intracellular calcium mobilization by FLIPR assay
# Type: functional, cell-based
Attribute measured: IP (µM)

Example results:
>>> df
                                item_smiles   val
0  O=C(O)c1cn(Cc2ccc(-c3ccccc3)cc2)c2nccnc2c1=O  0.78
1  O=C(O)c1cn(Cc2ccc(-n3ccnc3)cc2)c2ccsc2c1=O  0.24
2  Cc1ccn(-c2ccc(Cn3cc(C(=O)O)c(=O)c4cccnc43)cc2)n1  0.56

A: O=C(O)c1cn(Cc2ccc(-c3cccnc3)cn2)c2ccsc2c1=O
B: COc1ccc(-c2ccc(Cn3cc(C(=O)O)c(=O)c4sccc43)nc2)cn1
Choose between A and B : whose measured IP value is numerically larger? Lab log: write the label of the selected item as the result.
B
